EC50 by entry:
- study-target: hTRPC5 (Homo sapiens, UniProt Q9UL62)
- assay-notes: TRPC5 agonist activity assay (FLIPR calcium fluorescence)
- condition-info: Table 2, agonist activity on TRPC5 channels
Numbers only; they are read as nM.

> print(dat)
                                   molecule  property  experimental.result
1  CC(C)n1c(=O)n(CCCO)c(=O)c2c1nc(C1CC1C1CC1)n2Cc1ccc(Cl)cc1 (stereo not shown)      EC50                  105

Let's switch to this molecule now.
Quick check: EC50 of CC(C)OC1CCC(c2nc3c(c(=O)n(CCCO)c(=O)n3C)n2Cc2ccc(Cl)cc2)CC1 (stereo not shown) ?
36.1

====

- study-target: hTRPC5 (Homo sapiens, UniProt Q9UL62)
- Construct: expressed in transfected cells; host or cells: HEK-293
- Sequence (Q9UL62 1-973): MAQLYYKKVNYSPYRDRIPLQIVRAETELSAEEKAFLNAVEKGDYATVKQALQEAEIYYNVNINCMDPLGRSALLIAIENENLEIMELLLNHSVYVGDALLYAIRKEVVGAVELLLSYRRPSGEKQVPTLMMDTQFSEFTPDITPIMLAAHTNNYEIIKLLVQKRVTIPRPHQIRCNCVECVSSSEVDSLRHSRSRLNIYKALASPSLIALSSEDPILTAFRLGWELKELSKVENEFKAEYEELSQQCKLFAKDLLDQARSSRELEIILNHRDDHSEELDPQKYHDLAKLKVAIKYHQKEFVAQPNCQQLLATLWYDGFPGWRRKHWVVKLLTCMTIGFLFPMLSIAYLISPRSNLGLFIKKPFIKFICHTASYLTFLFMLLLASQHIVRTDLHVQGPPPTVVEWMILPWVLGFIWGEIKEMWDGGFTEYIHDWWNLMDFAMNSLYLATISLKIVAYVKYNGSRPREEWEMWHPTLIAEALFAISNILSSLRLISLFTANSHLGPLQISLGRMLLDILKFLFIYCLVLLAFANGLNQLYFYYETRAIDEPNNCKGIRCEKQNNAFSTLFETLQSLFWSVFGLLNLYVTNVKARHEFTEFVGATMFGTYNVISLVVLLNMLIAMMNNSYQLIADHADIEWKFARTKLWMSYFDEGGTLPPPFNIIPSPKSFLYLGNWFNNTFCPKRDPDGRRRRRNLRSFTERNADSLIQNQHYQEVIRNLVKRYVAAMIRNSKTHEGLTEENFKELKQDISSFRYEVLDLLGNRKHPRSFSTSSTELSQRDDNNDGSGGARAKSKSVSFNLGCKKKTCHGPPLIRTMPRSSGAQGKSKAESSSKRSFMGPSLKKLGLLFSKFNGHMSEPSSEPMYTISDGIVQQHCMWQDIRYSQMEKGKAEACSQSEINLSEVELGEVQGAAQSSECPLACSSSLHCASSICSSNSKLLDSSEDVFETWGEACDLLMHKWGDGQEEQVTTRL
- assay-notes: TRPC5 inhibitory activity assay (FLIPR calcium fluorescence, Englerin A stimulation)
- Type: cell-based
- condition-info: Table 1, TRPC5 channels, HEK-293 cells expressing hTRPC5; read-out: FLIPR IC50
pIC50: −log10 of the molar value.
property: pIC50

> print(dat)
                                   molecule  property  experimental.result
1  Cn1c(=O)n(CCCO)c(=O)c2c1nc(/C=N/OC(C)(C)C)n2Cc1ccc(Cl)cc1     pIC50                 7.36
2  CC(C)n1c(=O)n(CCCO)c(=O)c2c1nc(C1(F)CCC(C(F)(F)F)CC1)n2Cc1ccc(Cl)cc1 (stereo not drawn)     pIC50                 7.38
3  CC(C)n1c(=O)n(CCCO)c(=O)c2c1nc(C1CC1C1CCCC1)n2Cc1ccc(Cl)cc1 (stereo not drawn)     pIC50                 7.12
4  Cn1c(=O)n(CCCO)c(=O)c2c1nc(C1(F)CCC(C(F)(F)F)CC1)n2Cc1ccc(F)c(Cl)c1 (stereo not drawn)     pIC50                 9.43

[A] Cn1c(=O)n(CCCO)c(=O)c2c1nc(C1(F)CCC(C(F)(F)F)CC1)n2Cc1ccc(F)cc1F (stereo not drawn)
[B] Cn1c(=O)n(CCCO)c(=O)c2c1nc(C1=CCC(C(F)(F)F)CC1)n2Cc1ccc(Cl)cc1 (stereo not drawn)
Between A and B , which one has the lower reported pIC50 value? Returns: label corresponding to the selected item.
B
(B: 7.26, A: 8.55)

====

- assay-notes: Preliminary pharmacokinetic evaluation, plasma drug concentration after oral administration to mice
- Type: in vivo, ICR mice
- condition-info: male, ICR, mouse, oral 10 mg/kg, 4h, Mean ± SD, N = 3
property: concentration at 4 h (ng/mL)

Record excerpt, results attached:
> print(dat)
                                   compound  unit.tag  experimental.result
1  Cn1c(=O)n(CCCO)c(=O)c2c1nc(C1(F)CCC(F)(F)CC1)n2Cc1ccc(Cl)cc1F     ng/mL                 1200
2  Cn1c(=O)n(CCCO)c(=O)c2c1nc(C1(F)CCC(F)(F)CC1)n2Cc1ccc(F)c(Cl)c1     ng/mL                 1890

[P] Cn1c(=O)n(CCCO)c(=O)c2c1nc(C1(F)CCC(C(F)(F)F)CC1)n2Cc1ccccc1 (centres unmarked)
[Q] CC(C)n1c(=O)n(CCCO)c(=O)c2c1nc(C1(F)CCC(F)(F)CC1)n2Cc1ccc(F)cc1
[R] Cn1c(=O)n(CCCO)c(=O)c2c1nc(C1(F)CCC(F)(F)CC1)n2Cc1ccc(C(F)(F)F)cc1
# desc sort on concentration at 4 h across 3 compounds List labels; respect the requested ordering.
P, R, Q

====

- assay-notes: Pharmacokinetics in rats (oral and intravenous)
- Type: in vivo, SD rats
- condition-info: male, rat, plasma, 10 mg/kg (PO), Mean±SD, N=3
property: Cmax (ng/mL)
Numbers only; they are read as ng/mL.

Quick check: Cmax of Cn1c(=O)n(CCCO)c(=O)c2c1nc(C1(F)CCC(F)(F)CC1)n2Cc1ccc(F)c(Cl)c1 ?
1600

====

- assay-notes: Preliminary pharmacokinetic evaluation, plasma drug concentration after oral administration to mice
- Type: in vivo, ICR mice
- condition-info: male, ICR, mouse, oral 10 mg/kg, 1h, Mean ± SD, N = 3
property: concentration at 1 h (ng/mL)

Record excerpt, results attached:
> print(dat)
                                   compound              property  experimental.result
1  Cn1c(=O)n(CCCO)c(=O)c2c1nc(C1(F)CCC(F)(F)CC1)n2Cc1ccc(Cl)cc1F [Example E70]  concentration at 1 h                 1260
2  CC(C)n1c(=O)n(CCCO)c(=O)c2c1nc(C1(F)CCC(F)(F)CC1)n2Cc1ccc(F)cc1 [Example E46]  concentration at 1 h                 1170

[1] Cn1c(=O)n(CCCO)c(=O)c2c1nc(C1(F)CCC(F)(F)CC1)n2Cc1ccc(F)c(Cl)c1 [Example E68]
[2] Cn1c(=O)n(CCCO)c(=O)c2c1nc(C1(F)CCC(F)(F)CC1)n2Cc1ccc(C(F)(F)F)cc1 [Example E60]
Pick one: 1 or 2 . Which has the bigger concentration at 1 h number? Returns: label corresponding to the selected item.
1
(1: 2700 ng/mL, 2: 1310 ng/mL)

====

- study-target: hTRPC5 (Homo sapiens, UniProt Q9UL62)
- Sequence (Q9UL62 1-973): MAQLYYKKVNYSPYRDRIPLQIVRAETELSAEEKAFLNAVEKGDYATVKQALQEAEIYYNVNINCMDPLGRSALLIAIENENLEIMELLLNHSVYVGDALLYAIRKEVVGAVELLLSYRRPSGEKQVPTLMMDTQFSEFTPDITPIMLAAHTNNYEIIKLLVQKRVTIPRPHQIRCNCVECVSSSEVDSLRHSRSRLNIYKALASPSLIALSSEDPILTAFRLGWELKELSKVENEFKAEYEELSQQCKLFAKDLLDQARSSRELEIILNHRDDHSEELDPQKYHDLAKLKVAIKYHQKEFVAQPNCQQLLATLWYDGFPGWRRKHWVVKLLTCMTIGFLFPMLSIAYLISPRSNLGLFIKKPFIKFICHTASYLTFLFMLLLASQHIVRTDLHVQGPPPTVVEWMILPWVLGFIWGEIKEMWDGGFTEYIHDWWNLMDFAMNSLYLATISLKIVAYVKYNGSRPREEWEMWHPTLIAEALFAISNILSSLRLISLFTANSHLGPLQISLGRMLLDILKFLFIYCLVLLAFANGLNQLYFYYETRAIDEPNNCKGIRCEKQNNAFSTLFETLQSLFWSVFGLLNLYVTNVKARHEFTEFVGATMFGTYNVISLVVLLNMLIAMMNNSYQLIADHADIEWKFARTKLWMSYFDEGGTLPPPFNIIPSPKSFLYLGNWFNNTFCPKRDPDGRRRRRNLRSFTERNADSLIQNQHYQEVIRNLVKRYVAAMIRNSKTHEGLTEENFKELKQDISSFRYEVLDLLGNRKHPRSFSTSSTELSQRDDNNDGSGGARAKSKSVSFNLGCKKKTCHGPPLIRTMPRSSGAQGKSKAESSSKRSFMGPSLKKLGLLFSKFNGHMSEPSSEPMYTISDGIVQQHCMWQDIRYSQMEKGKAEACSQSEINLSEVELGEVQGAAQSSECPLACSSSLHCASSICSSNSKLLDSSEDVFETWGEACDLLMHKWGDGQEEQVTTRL
- assay-notes: TRPC5 agonist activity assay (FLIPR calcium fluorescence)
- condition-info: Table 2, agonist activity on TRPC5 channels
pEC50: −log10 of the molar value.
property: pEC50

Record excerpt, results attached:
> print(dat)
                                   molecule  experimental.result
1  Cn1c(=O)n(CCCO)c(=O)c2c1nc(C1(F)CCC(c3ccccc3)CC1)n2Cc1ccc(Cl)cc1 (stereo not drawn) [Example E54]                 6.77
2  Cn1c(=O)n(CCCO)c(=O)c2c1nc(C1(F)CCC(N3CCCC3)CC1)n2Cc1ccc(Cl)cc1 (stereo not drawn) [Example E55]                 6.15
3  Cn1c(=O)n(CCCO)c(=O)c2c1nc(C1(F)CC(c3ccccc3)C1)n2Cc1ccc(Cl)cc1 (stereo not drawn) [Example E17]                 6.62
4  CC(C)C1CCC(F)(c2nc3c(c(=O)n(CCCO)c(=O)n3C)n2Cc2ccc(Cl)cc2)CC1 (stereo not drawn) [Example E31]                 6.99

[1] Cn1c(=O)n(CCCO)c(=O)c2c1cc(C1CCC(c3ccccc3)CC1)n2Cc1ccc(Cl)cc1 (stereo not drawn) [Example E5]
[2] CC(C)OC1CCC(F)(c2nc3c(c(=O)n(CCCO)c(=O)n3C)n2Cc2ccc(Cl)cc2)CC1 (stereo not drawn) [Example E19]
Between 1 and 2 , which one has the lower reported pEC50 value? Returns: label corresponding to the selected item.
1
